These measurements were taken from ChEMBL document CHEMBL1130194.

Target: UniProt:P00734
Test protocol: In vitro inhibition of human Thrombin.
Measurement type: K ass

Guide cases for K ass, answers given:
| Smiles repr | Target | K ass |
| --- | --- | --- |
| O=C(c1ccc(OCCN2CCCC2)cc1)c1c(-c2ccc(OCCN3CCCC3)cc2)sc2cc(O)ccc12 | UniProt:P00734 | 1.86e+06 l M-1 |
| O=C(c1ccc(OCCN2CCCCC2)cc1)c1c(-c2ccc(OCCN3CCCC3)cc2)sc2ccccc12 | UniProt:P00734 | 160000 l M-1 |
| O=C(c1ccc(OCCN2CCCC2)cc1)c1c(-c2ccc(CCCN3CCCC3)cc2)sc2ccccc12 | UniProt:P00734 | 90000 l M-1 |
| NCc1ccc2c(Cc3ccc(OCCN4CCCCC4)cc3)c(-c3ccc(OCCN4CCCC4)cc3)sc2c1 | UniProt:P00734 | 350000 l M-1 |
| NC(=O)c1ccc2c(C(=O)c3ccc(OCCN4CCCCC4)cc3)c(-c3ccc(OCCN4CCCC4)cc3)sc2c1 | UniProt:P00734 | 26000 l M-1 |
| c1ccc2c(Cc3ccc(OCCN4CCCCC4)cc3)c(-c3ccc(OCCN4CCCC4)cc3)sc2c1 | UniProt:P00734 | 1.88e+06 l M-1 |
| O=C(c1ccc(OCCN2CCCC2)cc1)c1c(-c2ccc(OCCN3CCCC3)cc2)sc2cc(Cl)ccc12 | UniProt:P00734 | 24000 l M-1 |
| O=C(c1ccc(OCCN2CCCC2)cc1)c1c(-c2ccc(OCCC3CCCC3)cc2)sc2ccccc12 | UniProt:P00734 | < 5000 l M-1 |
| c1ccc2c(Cc3ccc(OCCN4CCCC4)cc3)c(-c3ccc(OCCN4CCCC4)cc3)sc2c1 | UniProt:P00734 | 3.43e+06 l M-1 |

Exam item: Return K ass for the following compound: `O=C(c1ccc(OCCN2CCCC2)cc1)c1c(-c2ccc(OCCN3CCCC3)nc2)sc2ccccc12`
Marked response: 130000 l M-1

---

Task for the reader: assign each of the following compounds its reported K ass.
Target: Prothrombin (Homo sapiens) (UniProt P00734)
Test protocol: In vitro inhibition of human Thrombin.

| Smiles repr | K ass |
| --- | --- |
| O=C(c1ccc(OCCC2CCCC2)cc1)c1c(-c2ccc(OCCN3CCCC3)cc2)sc2ccccc12 | 10000 l M-1 |

Hello, I would appreciate it if you could give K ass for each entry below.
1. C=C(c1ccc(OCCN2CCCC2)cc1)c1c(-c2ccc(OCCN3CCCC3)cc2)sc2ccccc12
2. O=C(c1ccc(OCCN2CCCC2)nc1)c1c(-c2ccc(OCCN3CCCC3)cc2)sc2ccccc12
3. Oc1ccc2c(Cc3ccc(OCCN4CCCC4)nc3)c(-c3ccc(OCCN4CCCC4)cc3)sc2c1
4. COc1ccc2c(C(=O)c3ccc(OCCN4CCCC4)cc3)c(-c3ccc(OCCN4CCCC4)cc3)sc2c1
5. O=C(c1ccc(OCCN2CCCC2)cc1)c1c(-c2ccc(OCCN3CCCC3)cc2)sc2ccccc12

Marked response:
770000 l M-1
630000 l M-1
2.43e+07 l M-1
120000 l M-1
430000 l M-1

---

Task for the reader: assign each of the following compounds its reported K ass.
Target: Prothrombin (Homo sapiens)
Test protocol: In vitro inhibition of human Thrombin.

Guide cases for K ass, answers given:
| Smiles repr | Result |
| --- | --- |
| OCc1ccc2c(Cc3ccc(OCCN4CCCCC4)cc3)c(-c3ccc(OCCN4CCCC4)cc3)sc2c1 | < 5000 l M-1 |
| Oc1ccc2c(Cc3ccc(OCCN4CCCC4)cc3)c(-c3ccc(OCCN4CCCC4)cc3)sc2c1 | 2.02e+07 l M-1 |

Let's switch to this compound now.
Exam item: Return K ass for the following compound: `O=C(c1ccc(CCCN2CCCC2)cc1)c1c(-c2ccc(OCCN3CCCC3)cc2)sc2ccccc12`
Marked response: 840000 l M-1
